These measurements were taken from patent US4661505A.

# studyTarget: LTD4 evoked ileal contractions (Cavia porcellus, UniProt Q2NNR5)
# Construct: A section of terminal ileum was removed, the lumen cleaned, and the tissue divided into 2.5 cm. segments; from tissue; host or cells: terminal ileum of male Hartley guinea pigs
# Sequence (Q2NNR5 1-340): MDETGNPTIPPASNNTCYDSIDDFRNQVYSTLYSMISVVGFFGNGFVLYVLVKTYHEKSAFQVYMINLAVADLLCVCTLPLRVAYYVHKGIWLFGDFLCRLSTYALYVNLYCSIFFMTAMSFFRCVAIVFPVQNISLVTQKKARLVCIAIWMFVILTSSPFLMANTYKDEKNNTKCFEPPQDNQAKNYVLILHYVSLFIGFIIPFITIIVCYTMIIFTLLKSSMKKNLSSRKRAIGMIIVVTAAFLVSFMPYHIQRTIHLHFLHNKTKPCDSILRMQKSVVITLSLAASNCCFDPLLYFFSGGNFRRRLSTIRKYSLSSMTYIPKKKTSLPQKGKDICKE
# experimentNotes: Antagonism of LTD4-evoked contraction of isolated guinea pig ileum (single concentration)
# Type: cell-based
# conditionInfo: 1 × 10^-6 M, pure LTD4, 5 minute exposure, read-out: Percent Inhibition of LTD4 evoked ileal contractions
recordedEndpoint: inhibition at 1 µM

Use the examples below as a reference point.
What measured inhibition at 1 µM goes with `CCCc1c(OCCSc2nn[nH]n2)ccc(C(C)=O)c1O` ?
47%

Moving on to the next compound: `CCCc1c(OCCCCCCCCCc2nnn[nH]2)ccc(C(C)=O)c1O`
78%

Can you check `CCCc1c(OCCCCCCCCc2nnn[nH]2)ccc(C(C)=O)c1O` next?
89%

Same again, this time with `CCCc1c(OCCCCC(C)(C)c2nnn[nH]2)ccc(C(C)=O)c1O`
89%

Please turn your attention to the following entry.
What does the data say about its inhibition at 1 µM? Entry: `CCCc1c(OCCCCCCCc2nnn[nH]2)ccc(C(C)=O)c1O`
92%
